These entries and their values trace back to ChEMBL document CHEMBL1800025.

Target: Glycogen synthase kinase-3 alpha/beta (Sus scrofa)
Test: Inhibition of pig brain GSK-3alpha/beta
readoutKind: IC50

{"columns": ["structureString", "observed"],
 "data": [
  ["O=C1NC(Nc2ccc3c(c2)OCCO3)=N/C1=C\\c1ccc2c(c1)OCO2", "> 10 µM"],
  ["CN1C(=O)/C(=C/c2ccc3c(c2)OCO3)N=C1NCc1ccccc1", "> 10 µM"],
  ["CCOC(=O)C(=O)NC1=N/C(=C\\c2ccc3c(c2)OCO3)C(=O)N1C", "> 10 µM"]
]}

---

Molecular target: Dual specificity tyrosine-phosphorylation-regulated kinase 2 (Homo sapiens)
Sequence (Q92630 whole entry): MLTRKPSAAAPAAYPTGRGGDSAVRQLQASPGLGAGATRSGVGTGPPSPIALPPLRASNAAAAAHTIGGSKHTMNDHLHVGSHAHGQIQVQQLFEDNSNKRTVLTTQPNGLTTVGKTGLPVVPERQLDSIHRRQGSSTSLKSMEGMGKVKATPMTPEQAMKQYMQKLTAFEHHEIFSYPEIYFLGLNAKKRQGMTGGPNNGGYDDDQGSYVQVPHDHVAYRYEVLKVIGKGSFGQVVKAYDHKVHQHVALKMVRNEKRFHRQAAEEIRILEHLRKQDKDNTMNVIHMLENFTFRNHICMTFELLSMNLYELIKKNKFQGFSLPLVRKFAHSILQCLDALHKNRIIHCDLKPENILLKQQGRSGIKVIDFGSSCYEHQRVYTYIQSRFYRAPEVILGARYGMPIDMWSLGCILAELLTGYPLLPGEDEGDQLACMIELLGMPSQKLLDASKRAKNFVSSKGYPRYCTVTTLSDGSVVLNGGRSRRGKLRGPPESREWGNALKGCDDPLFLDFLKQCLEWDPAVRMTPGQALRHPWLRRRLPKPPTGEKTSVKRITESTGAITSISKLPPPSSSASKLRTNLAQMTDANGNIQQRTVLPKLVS
Experiment: Inhibition of human recombinant GST-tagged DYRK2 using KKISGRLSPIMTEQ as substrate and [gamma32]-ATP after 30 mins by scintillation counting
IC50: recorded values
readoutKind: IC50

{"columns": ["structureString", "readoutKind", "observed"],
 "data": [
  ["CN1C(=O)/C(=C/c2ccc3c(c2)OCO3)N=C1N", "IC50", "1500 nM"],
  ["C=CCNC1=N/C(=C\\c2ccc3c(c2)OCO3)C(=O)N1C", "IC50", "620 nM"],
  ["CC(C)NC1=N/C(=C\\c2ccc3c(c2)OCO3)C(=O)N1C", "IC50", "530 nM"],
  ["CN1C(=O)/C(=C/c2ccc3c(c2)OCO3)N=C1NCCCO", "IC50", "470 nM"],
  ["CCCNC1=N/C(=C\\c2ccc3c(c2)OCO3)C(=O)N1c1ccccc1", "IC50", "> 10000 nM"],
  ["COc1ccc(NC2=N/C(=C\\c3ccc4c(c3)OCO4)C(=O)N2C)cc1", "IC50", "510 nM"],
  ["CNC1=N/C(=C\\c2ccc3c(c2)OCO3)C(=O)N1C", "IC50", "2200 nM"],
  ["CN1C(=O)/C(=C/c2ccc3c(c2)OCO3)N=C1NCCCCCO", "IC50", "2000 nM"]
]}

---

Molecular target: Dual specificity tyrosine-phosphorylation-regulated kinase 1A (Rattus norvegicus)
Assay: Inhibition of rat recombinant GST-tagged DYRK1A using KKISGRLSPIMTEQ as substrate and [gamma32]-ATP after 30 mins by scintillation counting
IC50: recorded values
readoutKind: IC50 (nM)

{"columns": ["structureString", "endpointUnit", "comparativeSign", "observed"],
 "data": [
  ["CCCNC1=N/C(=C\\c2ccc3c(c2)OCO3)C(=O)N1c1ccccc1", "nM", ">", 10000],
  ["CN1C(=O)/C(=C/c2ccc3c(c2)OCO3)N=C1NCC1CC1", "nM", "=", 200],
  ["CC(C)CNC1=N/C(=C\\c2ccc3c(c2)OCO3)C(=O)N1C", "nM", "=", 170],
  ["CC(C)CCNC1=N/C(=C\\c2ccc3c(c2)OCO3)C(=O)N1C", "nM", "=", 460]
]}

---

Molecular target: Dual specificity protein kinase CLK1 (Mus musculus)
Sequence (P22518 whole entry): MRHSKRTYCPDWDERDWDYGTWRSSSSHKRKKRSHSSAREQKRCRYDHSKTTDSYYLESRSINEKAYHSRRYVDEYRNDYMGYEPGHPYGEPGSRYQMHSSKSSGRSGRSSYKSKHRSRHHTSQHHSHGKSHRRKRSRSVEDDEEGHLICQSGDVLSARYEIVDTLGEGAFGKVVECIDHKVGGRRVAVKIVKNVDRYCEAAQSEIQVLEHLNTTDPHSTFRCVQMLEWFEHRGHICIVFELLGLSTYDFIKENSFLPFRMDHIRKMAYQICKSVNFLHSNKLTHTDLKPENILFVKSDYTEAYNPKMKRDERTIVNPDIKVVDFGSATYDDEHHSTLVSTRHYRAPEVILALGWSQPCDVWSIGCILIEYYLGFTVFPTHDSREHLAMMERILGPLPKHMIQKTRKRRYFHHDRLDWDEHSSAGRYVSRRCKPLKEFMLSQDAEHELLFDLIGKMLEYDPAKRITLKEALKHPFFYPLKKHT
Experiment: Inhibition of mouse recombinant GST-tagged CLK1 using GRSRSRSRSRSR as substrate
IC50: recorded values
readoutKind: IC50 (nM)

{"columns": ["structureString", "comparativeSign", "observed"],
 "data": [
  ["CCCNC1=N/C(=C\\c2ccc3c(c2)OCO3)C(=O)N1c1ccccc1", ">", 10000],
  ["CN1C(=O)/C(=C/c2ccc3c(c2)OCO3)N=C1NCC1CC1", "=", 130],
  ["O=C1NC(Nc2ccc(O)cc2)=N/C1=C\\c1ccc2c(c1)OCO2", "=", 60],
  ["CCCNC1=N/C(=C\\c2cc(OC)c(OC)c(OC)c2)C(=O)N1C", ">", 10000],
  ["C=CCNC1=N/C(=C\\c2ccc3c(c2)OCO3)C(=O)N1C", "=", 200],
  ["COc1ccc(NC2=N/C(=C\\c3ccc4c(c3)OCO4)C(=O)N2C)cc1", "=", 450],
  ["COCCNC1=N/C(=C\\c2ccc3c(c2)OCO3)C(=O)N1C", "=", 73],
  ["CN1C(=O)/C(=C/c2ccc3c(c2)OCO3)N=C1NCc1ccc2c(c1)OCO2", "=", 230]
]}
